TARGET: UniProtKB P21917
Sequence (P21917 1-419): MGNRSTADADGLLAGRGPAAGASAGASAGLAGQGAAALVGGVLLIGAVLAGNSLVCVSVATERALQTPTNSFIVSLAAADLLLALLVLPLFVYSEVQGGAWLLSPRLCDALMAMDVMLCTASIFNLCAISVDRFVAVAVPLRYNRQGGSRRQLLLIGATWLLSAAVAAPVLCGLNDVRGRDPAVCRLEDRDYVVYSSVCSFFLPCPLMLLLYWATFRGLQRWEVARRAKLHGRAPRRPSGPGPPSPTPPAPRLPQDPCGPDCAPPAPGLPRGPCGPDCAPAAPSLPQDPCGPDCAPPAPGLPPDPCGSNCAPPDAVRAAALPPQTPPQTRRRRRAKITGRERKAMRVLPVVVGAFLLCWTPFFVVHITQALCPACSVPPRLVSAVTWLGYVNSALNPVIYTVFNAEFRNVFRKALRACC
OBSERVED_PROPERTY: Ki (nM)

[[record]]
chemical_string = "CCCCN(C(=O)CN1CCN(Cc2ccc(Cl)cc2)CC1)c1ccccc1"
observed_value = 154


All figures here come from patent US6444819B1.
